Quick reference: Dmax of the listed items.
target: IKZF2 (Homo sapiens, UniProt Q96SW2+Q9UKS7); assay: HEK293 HiBiT in vitro degradation of IKZF2; assay type: cell-based; parameters: expressed in transfected cells; conditions: HEK293, HEK293 HiBiT; maximum degradation at the highest concentration tested
Sequence (Q9UKS7 1-500 isoform Q9UKS7-2): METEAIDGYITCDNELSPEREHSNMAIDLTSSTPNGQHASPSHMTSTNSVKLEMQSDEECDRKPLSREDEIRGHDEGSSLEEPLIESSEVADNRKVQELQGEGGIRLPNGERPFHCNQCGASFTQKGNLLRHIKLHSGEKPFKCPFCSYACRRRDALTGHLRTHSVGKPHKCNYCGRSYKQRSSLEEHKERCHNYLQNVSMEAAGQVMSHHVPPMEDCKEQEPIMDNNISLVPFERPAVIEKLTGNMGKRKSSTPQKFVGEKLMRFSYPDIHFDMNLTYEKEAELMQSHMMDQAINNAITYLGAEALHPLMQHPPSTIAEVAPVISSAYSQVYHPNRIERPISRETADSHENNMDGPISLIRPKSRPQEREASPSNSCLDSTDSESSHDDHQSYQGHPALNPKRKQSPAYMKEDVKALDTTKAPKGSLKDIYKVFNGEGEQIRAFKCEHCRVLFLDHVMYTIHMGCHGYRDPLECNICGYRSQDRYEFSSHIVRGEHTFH
Sequence (Q96SW2 whole entry): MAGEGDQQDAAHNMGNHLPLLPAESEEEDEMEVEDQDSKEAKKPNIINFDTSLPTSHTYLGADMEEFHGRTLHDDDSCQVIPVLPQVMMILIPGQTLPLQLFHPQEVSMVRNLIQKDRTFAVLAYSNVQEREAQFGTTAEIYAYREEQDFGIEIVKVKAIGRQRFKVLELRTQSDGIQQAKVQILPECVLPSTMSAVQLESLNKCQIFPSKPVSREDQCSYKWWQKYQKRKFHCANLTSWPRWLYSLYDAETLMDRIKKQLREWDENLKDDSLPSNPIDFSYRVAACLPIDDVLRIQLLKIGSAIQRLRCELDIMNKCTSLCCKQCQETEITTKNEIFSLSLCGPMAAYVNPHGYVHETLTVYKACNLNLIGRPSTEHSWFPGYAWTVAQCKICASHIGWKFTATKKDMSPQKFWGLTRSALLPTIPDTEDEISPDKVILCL
Sequence (Q16531 whole entry partner): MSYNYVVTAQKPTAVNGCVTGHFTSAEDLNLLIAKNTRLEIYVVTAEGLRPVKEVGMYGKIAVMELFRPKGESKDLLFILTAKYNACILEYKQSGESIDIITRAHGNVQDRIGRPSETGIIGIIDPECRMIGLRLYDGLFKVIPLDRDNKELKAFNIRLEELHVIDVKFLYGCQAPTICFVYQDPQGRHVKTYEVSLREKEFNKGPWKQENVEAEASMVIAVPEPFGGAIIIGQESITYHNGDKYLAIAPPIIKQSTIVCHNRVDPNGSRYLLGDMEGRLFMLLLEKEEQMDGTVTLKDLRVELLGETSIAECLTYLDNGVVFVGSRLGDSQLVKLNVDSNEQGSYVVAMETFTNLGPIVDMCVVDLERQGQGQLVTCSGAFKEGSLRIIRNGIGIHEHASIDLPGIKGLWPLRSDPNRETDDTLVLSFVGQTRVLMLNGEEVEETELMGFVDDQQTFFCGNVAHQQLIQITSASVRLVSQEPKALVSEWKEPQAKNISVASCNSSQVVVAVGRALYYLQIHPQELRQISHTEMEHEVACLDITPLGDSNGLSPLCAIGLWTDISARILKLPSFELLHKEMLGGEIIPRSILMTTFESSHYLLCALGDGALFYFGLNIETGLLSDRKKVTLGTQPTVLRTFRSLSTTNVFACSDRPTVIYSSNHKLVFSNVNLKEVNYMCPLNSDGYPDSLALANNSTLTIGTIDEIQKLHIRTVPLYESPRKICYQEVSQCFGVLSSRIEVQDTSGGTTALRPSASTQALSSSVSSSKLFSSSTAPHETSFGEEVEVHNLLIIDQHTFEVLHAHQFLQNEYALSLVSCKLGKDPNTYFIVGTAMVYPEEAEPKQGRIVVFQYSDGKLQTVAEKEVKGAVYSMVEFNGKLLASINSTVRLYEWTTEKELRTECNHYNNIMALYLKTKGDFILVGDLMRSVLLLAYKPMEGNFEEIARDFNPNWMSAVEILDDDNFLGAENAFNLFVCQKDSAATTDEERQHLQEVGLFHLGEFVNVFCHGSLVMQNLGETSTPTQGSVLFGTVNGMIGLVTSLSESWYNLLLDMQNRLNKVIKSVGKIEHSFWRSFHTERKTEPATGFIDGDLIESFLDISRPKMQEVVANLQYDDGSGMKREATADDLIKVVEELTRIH
experimental_readout: Dmax (%)

compound="CC1(C)CCC(N[C@H]2CCCC[C@@H]2Cc2ccc3c(c2)CN(C2CCC(=O)NC2=O)C3=O)CC1 (stereo partly shown)" experimental_readout=Dmax measure_unit=% readout_value=97
compound="CC(C)N[C@H]1CC=CC[C@@H]1Cc1ccc2c(c1)CN(C1CCC(=O)NC1=O)C2=O (stereo partly shown)" experimental_readout=Dmax measure_unit=% readout_value=86
compound="O=C1CCC(N2Cc3cc(C[C@H]4CCCC[C@@H]4NC4CCC(OC(F)(F)F)CC4)ccc3C2=O)C(=O)N1 (single isomer, unassigned)" experimental_readout=Dmax measure_unit=% readout_value=96
compound="O=C1CCC(N2Cc3cc(C[C@H]4CCC[C@H](O)[C@@H]4NC4CCC(F)(F)CC4)ccc3C2=O)C(=O)N1 (single isomer, unassigned) [Example 151]" experimental_readout=Dmax measure_unit=% readout_value=87
compound="O=C1CCC(N2Cc3cc(C[C@H]4CCCC[C@@H]4NCc4ccc(C(F)(F)F)cc4)ccc3C2=O)C(=O)N1 (stereo partly shown)" experimental_readout=Dmax measure_unit=% readout_value=87
compound="CC(N[C@H]1CCCC[C@@H]1Cc1ccc2c(c1)CN(C1CCC(=O)NC1=O)C2=O)C1CCCCC1 (stereo partly shown)" experimental_readout=Dmax measure_unit=% readout_value=95
compound="O=C1CC[C@@H](N2Cc3c(ccc(C[C@H]4OCCC[C@@H]4N[C@H]4CC[C@H](F)CC4)c3F)C2=O)C(=O)N1 (single isomer, unassigned)" experimental_readout=Dmax measure_unit=% readout_value=94

* * *

molecular target: IKZF2 (Homo sapiens, UniProt Q96SW2+Q9UKS7); assay: HEK293 HiBiT in vitro degradation of IKZF2; format: cell-based; design: expressed in transfected cells; details: HEK293 HiBiT, 18-24 hr incubation, normalized to DMSO control; read-out: IKZF2 EC50
experimental_readout: DC50

compound="COCC1CCC(N[C@H]2CCCC[C@@H]2Cc2ccc3c(c2)CN(C2CCC(=O)NC2=O)C3=O)CC1 (single isomer, unassigned) [Example 252]" readout_value="3 nM"
compound="O=C1CCC(N2Cc3cc(C[C@H]4CCCC[C@@H]4NC4CCC5(CC4)COC5)ccc3C2=O)C(=O)N1 (stereo partly drawn)" readout_value="12 nM"
compound="O=C1CCC(N2Cc3cc(C[C@H]4OCCC[C@@H]4NC4CCC(F)CC4)ccc3C2=O)C(=O)N1 (single isomer, unassigned) [Example 366]" readout_value="17 nM"
compound="[2H]C1(N[C@H]2CCCC[C@@H]2Cc2ccc3c(c2)CN(C2CCC(=O)NC2=O)C3=O)CCCCC1 (stereo partly drawn)" readout_value="2 nM"
compound="CC(N[C@H]1CCCO[C@@H]1Cc1ccc2c(c1F)CN(C1CCC(=O)NC1=O)C2=O)C1CCOCC1 (single isomer, unassigned) [Example 298]" readout_value="55 nM"
compound="CC(C)(CCN[C@H]1CCCC[C@@H]1Cc1ccc2c(c1)CN(C1CCC(=O)NC1=O)C2=O)C(F)(F)F (stereo partly drawn)" readout_value="9 nM"

* * *

molecular target: IKZF2 (Homo sapiens, UniProt Q96SW2+Q9UKS7); assay: HEK293 HiBiT in vitro degradation of IKZF2; type: cell-based; parameters: expressed in transfected cells; details: HEK293 HiBiT, 18-24 hr incubation, normalized to DMSO control; read-out: IKZF2 EC50
experimental_readout: DC50 (nM)

compound="O=C1CCC(N2Cc3c(ccc(C[C@H]4OCCC[C@@H]4NC4CCC(OC(F)F)CC4)c3F)C2=O)C(=O)N1 (single isomer, unassigned) [Example 326]" tested_target="IKZF2 (Homo sapiens, UniProt Q96SW2+Q9UKS7)" measure_unit=nM readout_value=7
compound="O=C1CC[C@@H](N2Cc3cc(C[C@H]4CCCC[C@@H]4NC4CCCCC4)ccc3C2=O)C(=O)N1 (single isomer, unassigned)" tested_target="IKZF2 (Homo sapiens, UniProt Q96SW2+Q9UKS7)" measure_unit=nM readout_value=5
compound="CC(N[C@H]1CCCO[C@@H]1Cc1ccc2c(c1F)CN(C1CCC(=O)NC1=O)C2=O)C1CCOCC1 (single isomer, unassigned) [Example 291]" tested_target="IKZF2 (Homo sapiens, UniProt Q96SW2+Q9UKS7)" measure_unit=nM readout_value=10
compound="O=C1CCC(N2Cc3cc(C[C@H]4CCOC[C@@H]4NC4CCC(F)(F)CC4)ccc3C2=O)C(=O)N1 (stereo partly shown)" tested_target="IKZF2 (Homo sapiens, UniProt Q96SW2+Q9UKS7)" measure_unit=nM readout_value=114
compound="O=C1CCC(N2Cc3cc(C[C@H]4CCCC[C@@H]4NCc4ccccc4)ccc3C2=O)C(=O)N1 (stereo partly shown) [Example 2]" tested_target="IKZF2 (Homo sapiens, UniProt Q96SW2+Q9UKS7)" measure_unit=nM readout_value=18
compound="O=C1CCC(N2Cc3cc(C[C@H]4CCCC[C@@H]4NC4CCc5c(C(F)(F)F)n[nH]c5C4)ccc3C2=O)C(=O)N1 (single isomer, unassigned) [Example 363]" tested_target="IKZF2 (Homo sapiens, UniProt Q96SW2+Q9UKS7)" measure_unit=nM readout_value=1
compound="CCC(N[C@H]1CCCC[C@@H]1Cc1ccc2c(c1)CN(C1CCC(=O)NC1=O)C2=O)C1CC1 (single isomer, unassigned) [Example 232]" tested_target="IKZF2 (Homo sapiens, UniProt Q96SW2+Q9UKS7)" measure_unit=nM readout_value=21
compound="CC(N[C@H]1CC(F)(F)CC[C@@H]1Cc1ccc2c(c1)CN(C1CCC(=O)NC1=O)C2=O)C1CCOCC1 (stereo partly shown)" tested_target="IKZF2 (Homo sapiens, UniProt Q96SW2+Q9UKS7)" measure_unit=nM readout_value=11
compound="CC1(C)COCCC1N[C@H]1CCCC[C@@H]1Cc1ccc2c(c1)CN(C1CCC(=O)NC1=O)C2=O (stereo partly shown)" tested_target="IKZF2 (Homo sapiens, UniProt Q96SW2+Q9UKS7)" measure_unit=nM readout_value=6
compound="C=C1CC[C@H](N)[C@@H](Cc2ccc3c(c2)CN(C2CCC(=O)NC2=O)C3=O)C1 (stereo partly shown)" tested_target="IKZF2 (Homo sapiens, UniProt Q96SW2+Q9UKS7)" measure_unit=nM readout_value=207
compound="CCC(C)(C)N[C@H]1CCCC[C@@H]1Cc1ccc2c(c1)CN(C1CCC(=O)NC1=O)C2=O (stereo partly shown)" tested_target="IKZF2 (Homo sapiens, UniProt Q96SW2+Q9UKS7)" measure_unit=nM readout_value=54
compound="O=C1CCC(N2Cc3cc(C[C@H]4CCCC[C@@H]4NCc4ccccc4)ccc3C2=O)C(=O)N1 (single isomer, unassigned) [Example 98]" tested_target="IKZF2 (Homo sapiens, UniProt Q96SW2+Q9UKS7)" measure_unit=nM readout_value=41
compound="O=C1CCC(N2Cc3cc(C[C@H]4CC(CO)CC[C@@H]4NC4CCCCC4)ccc3C2=O)C(=O)N1 (single isomer, unassigned) [Example 383]" tested_target="IKZF2 (Homo sapiens, UniProt Q96SW2+Q9UKS7)" measure_unit=nM readout_value=226

* * *

target: IKZF2 (Homo sapiens, UniProt Q96SW2+Q9UKS7); experiment: HEK293 HiBiT in vitro degradation of IKZF2; format: cell-based; parameters: expressed in transfected cells; conditions: HEK293, HEK293 HiBiT; maximum degradation at the highest concentration tested
experimental_readout: Dmax (%)

molecule="CC(C)(C#N)CCN[C@H]1CCCC[C@@H]1Cc1ccc2c(c1)CN(C1CCC(=O)NC1=O)C2=O (stereo partly drawn) [Example 133]" readout_value=96
molecule="O=C1CCC(N2Cc3c(ccc(C[C@H]4CCCC[C@@H]4NCc4ccccc4)c3F)C2=O)C(=O)N1 (stereo partly drawn) [Example 11]" readout_value=98
molecule="CC1(C)CCC(N[C@H]2CCCO[C@@H]2Cc2ccc3c(c2F)CN(C2CCC(=O)NC2=O)C3=O)C1 (single isomer, unassigned) [Example 258]" readout_value=97
molecule="O=C1CCC(N2Cc3c(ccc(C[C@H]4OCCC[C@@H]4NC4CCOCC4)c3F)C2=O)C(=O)N1 (stereo partly drawn) [Example 305]" readout_value=96
molecule="O=C1CCC(N2Cc3cc(C[C@H]4CCCC[C@@H]4NCC45CC(C4)C5)ccc3C2=O)C(=O)N1 (stereo partly drawn) [Example 63]" readout_value=89
molecule="O=C1CCC(N2Cc3cc(C[C@H]4CCCC[C@@H]4NC4CCc5ccccc54)ccc3C2=O)C(=O)N1 (stereo partly drawn) [Example 131]" readout_value=96

* * *

target: IKZF2 (Homo sapiens, UniProt Q96SW2+Q9UKS7); test: HEK293 HiBiT in vitro degradation of IKZF2; assay type: cell-based; set-up: expressed in transfected cells; conditions: HEK293 HiBiT, 18-24 hr incubation, normalized to DMSO control; read-out: IKZF2 EC50
// reported DC50 per item
experimental_readout: DC50 (nM)

compound="O=C1CCC(N2Cc3cc(C[C@H]4CCCC[C@@H]4NCC4CC(F)(F)C4)ccc3C2=O)C(=O)N1 (some centres unmarked) [Example 24]" measure_unit=nM readout_value=10
compound="O=C1CCC(N2Cc3c(ccc(C[C@H]4CCCC[C@@H]4NCC4COC4)c3F)C2=O)C(=O)N1 (some centres unmarked) [Example 186]" measure_unit=nM readout_value=8
compound="O=C1CC[C@@H](N2Cc3c(ccc(C[C@H]4OCCC[C@@H]4N[C@H]4CC[C@H](F)CC4)c3F)C2=O)C(=O)N1 (single isomer, unassigned) [Example 373]" measure_unit=nM readout_value=7
compound="O=C1CCC(N2Cc3cc(C[C@H]4CCCC[C@@H]4NC4CC5CCC4O5)ccc3C2=O)C(=O)N1 (some centres unmarked) [Example 193]" measure_unit=nM readout_value=7
compound="O=C1CCC(N2Cc3cc(C[C@H]4CCCC[C@@H]4NC4CCC(C(F)(F)F)CC4)ccc3C2=O)C(=O)N1 (single isomer, unassigned) [Example 122]" measure_unit=nM readout_value=2
compound="O=C1CCC(N2Cc3cc(C[C@H]4CCC(F)(F)C[C@@H]4NC4CCC(F)(F)CC4)ccc3C2=O)C(=O)N1 (some centres unmarked) [Example 345]" measure_unit=nM readout_value=4
compound="CC(N[C@H]1CCCC[C@@H]1Cc1ccc2c(c1F)CN(C1CCC(=O)NC1=O)C2=O)C1CCOCC1 (single isomer, unassigned) [Example 287]" measure_unit=nM readout_value=1
compound="CC(N[C@H]1CCCC[C@@H]1Cc1ccc2c(c1)CN(C1CCC(=O)NC1=O)C2=O)C(C)(C)F (single isomer, unassigned) [Example 226]" measure_unit=nM readout_value=14
compound="CC(C)(C)CCN[C@H]1CCCC[C@@H]1Cc1ccc2c(c1)CN(C1CCC(=O)NC1=O)C2=O (some centres unmarked) [Example 56]" measure_unit=nM readout_value=14
compound="O=C1CCC(N2Cc3cc(C[C@H]4CCC[C@H](O)[C@@H]4NC4CCC(F)(F)CC4)ccc3C2=O)C(=O)N1 (some centres unmarked) [Example 163]" measure_unit=nM readout_value=14
compound="O=C1CC[C@@H](N2Cc3c(ccc(C[C@H]4OCCC[C@@H]4NC4CCC(F)(F)CC4)c3F)C2=O)C(=O)N1 (single isomer, unassigned) [Example 333]" measure_unit=nM readout_value=9
compound="O=C1CCC(N2Cc3cc(C[C@H]4CCCC[C@@H]4NCCOc4ccccc4Cl)ccc3C2=O)C(=O)N1 (some centres unmarked) [Example 65]" measure_unit=nM readout_value=48
compound="O=C1CCC(N2Cc3c(ccc(C[C@H]4CCCC[C@@H]4NC4CCCC4)c3F)C2=O)C(=O)N1 (some centres unmarked) [Example 87]" measure_unit=nM readout_value=2
compound="O=C1CCC(N2Cc3cc(C[C@H]4CCCC[C@@H]4NCc4nccs4)ccc3C2=O)C(=O)N1 (some centres unmarked) [Example 37]" measure_unit=nM readout_value=172

Values were extracted from patent US11897862B2.
